The reported numbers originate from ChEMBL document CHEMBL1125370.

species on record: Cavia porcellus; experiment: In vitro inotropic activity expressed as the maximal increase in developed tension in isolated left atria from guinea pig.; type: functional
parameter measured: Ionotropic activity (mg)
Please respond with the number in mg and leave the unit unwritten.

Sample answers from the record:
> print(dat)
                                   compound   parameter.measured  recorded.result
1  Cc1[nH]c(=O)c(C#N)cc1-c1ccncc1 [MILRINONE]  Ionotropic activity              580
2     c1ccc(-c2nc3cc(-n4ccnc4)ccc3[nH]2)nc1  Ionotropic activity              170
3  COc1cc([S+](C)[O-])ccc1-c1nc2cccnc2[nH]1 (centres undefined) [SULMAZOLE]  Ionotropic activity              600

Next:
Q: Look up Ionotropic activity for this compound: O=C1CCC(c2ccc(Nc3ccncc3)cc2)=NN1 [SENAZODAN]
Result: 410
